The values you see were collected from patent US12559506B2.

# Target under test: G2019S LRRK2 (Homo sapiens, UniProt Q5S007, G2019S)
# Construct: expressed in transfected cells; host or cells: HEK293 (ATCC CRL-1573), transient transfection, mammalian expression vector with ubiquitin promoter
# Sequence (Q5S007 whole entry G2019S): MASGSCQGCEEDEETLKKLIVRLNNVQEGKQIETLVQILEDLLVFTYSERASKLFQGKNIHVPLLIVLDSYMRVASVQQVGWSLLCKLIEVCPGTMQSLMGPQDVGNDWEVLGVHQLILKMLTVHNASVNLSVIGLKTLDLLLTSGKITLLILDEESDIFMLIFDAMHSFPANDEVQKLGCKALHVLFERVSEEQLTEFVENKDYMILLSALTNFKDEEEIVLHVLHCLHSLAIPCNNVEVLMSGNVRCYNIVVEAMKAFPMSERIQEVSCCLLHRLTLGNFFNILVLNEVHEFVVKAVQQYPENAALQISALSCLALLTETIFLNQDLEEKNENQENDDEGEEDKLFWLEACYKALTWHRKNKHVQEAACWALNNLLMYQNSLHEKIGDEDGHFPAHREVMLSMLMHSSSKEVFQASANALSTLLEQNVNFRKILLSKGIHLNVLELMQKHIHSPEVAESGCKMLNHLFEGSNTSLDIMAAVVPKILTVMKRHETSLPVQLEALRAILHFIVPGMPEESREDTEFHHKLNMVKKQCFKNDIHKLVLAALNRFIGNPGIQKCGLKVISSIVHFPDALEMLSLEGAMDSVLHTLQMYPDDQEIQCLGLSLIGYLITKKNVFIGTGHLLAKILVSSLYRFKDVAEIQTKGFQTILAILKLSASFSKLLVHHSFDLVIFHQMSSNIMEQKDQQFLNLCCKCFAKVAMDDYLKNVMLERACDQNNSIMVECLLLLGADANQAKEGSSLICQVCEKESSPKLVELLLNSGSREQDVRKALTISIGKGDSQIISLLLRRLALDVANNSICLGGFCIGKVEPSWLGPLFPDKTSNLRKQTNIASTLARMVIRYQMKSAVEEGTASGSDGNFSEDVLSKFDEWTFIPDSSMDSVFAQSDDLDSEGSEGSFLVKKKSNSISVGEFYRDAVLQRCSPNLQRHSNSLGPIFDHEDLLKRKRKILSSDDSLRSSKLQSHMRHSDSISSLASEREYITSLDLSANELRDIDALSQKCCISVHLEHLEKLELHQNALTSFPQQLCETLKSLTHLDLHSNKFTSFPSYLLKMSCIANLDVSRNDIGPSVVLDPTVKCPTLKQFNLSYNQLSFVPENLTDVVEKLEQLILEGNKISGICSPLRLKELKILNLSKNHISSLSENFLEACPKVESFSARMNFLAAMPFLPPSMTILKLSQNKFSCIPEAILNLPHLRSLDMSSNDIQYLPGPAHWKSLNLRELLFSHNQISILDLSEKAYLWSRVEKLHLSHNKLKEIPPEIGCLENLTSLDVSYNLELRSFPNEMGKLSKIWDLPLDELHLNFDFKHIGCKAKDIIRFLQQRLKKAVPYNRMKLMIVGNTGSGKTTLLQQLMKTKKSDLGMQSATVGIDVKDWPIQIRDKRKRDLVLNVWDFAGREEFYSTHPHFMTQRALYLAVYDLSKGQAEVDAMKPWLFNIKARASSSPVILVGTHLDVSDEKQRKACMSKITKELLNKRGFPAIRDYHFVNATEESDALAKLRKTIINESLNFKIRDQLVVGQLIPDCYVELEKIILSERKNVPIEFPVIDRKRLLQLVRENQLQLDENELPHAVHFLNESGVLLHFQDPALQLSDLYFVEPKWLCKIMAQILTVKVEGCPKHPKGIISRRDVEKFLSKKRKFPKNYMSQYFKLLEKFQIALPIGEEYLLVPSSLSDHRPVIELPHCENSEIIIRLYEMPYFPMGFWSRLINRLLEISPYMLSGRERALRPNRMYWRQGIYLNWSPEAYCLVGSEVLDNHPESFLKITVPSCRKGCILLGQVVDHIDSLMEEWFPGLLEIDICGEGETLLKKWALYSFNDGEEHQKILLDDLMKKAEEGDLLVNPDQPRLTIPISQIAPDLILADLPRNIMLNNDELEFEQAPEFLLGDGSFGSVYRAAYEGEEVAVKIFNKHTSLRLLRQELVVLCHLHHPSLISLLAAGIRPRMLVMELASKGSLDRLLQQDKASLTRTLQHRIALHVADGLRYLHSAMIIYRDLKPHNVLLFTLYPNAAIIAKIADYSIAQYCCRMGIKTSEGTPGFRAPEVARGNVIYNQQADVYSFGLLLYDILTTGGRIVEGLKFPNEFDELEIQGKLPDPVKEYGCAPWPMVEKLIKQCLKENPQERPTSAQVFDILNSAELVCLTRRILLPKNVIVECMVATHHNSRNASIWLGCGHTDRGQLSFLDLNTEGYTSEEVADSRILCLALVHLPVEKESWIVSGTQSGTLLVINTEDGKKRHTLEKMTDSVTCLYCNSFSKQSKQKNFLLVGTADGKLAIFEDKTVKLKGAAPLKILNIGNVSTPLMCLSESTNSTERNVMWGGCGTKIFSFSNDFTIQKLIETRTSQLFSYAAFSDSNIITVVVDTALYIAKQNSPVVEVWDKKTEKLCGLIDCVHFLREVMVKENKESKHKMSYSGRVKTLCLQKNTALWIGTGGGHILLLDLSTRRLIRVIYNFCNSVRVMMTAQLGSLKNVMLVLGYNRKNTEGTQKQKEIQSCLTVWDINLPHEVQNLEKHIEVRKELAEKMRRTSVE
# Assay name: LRRK2 degradation assay, HiBit-tagged G2019S LRRK2 expressed from plasmid in HEK293 cells (Nano-Glo Dual-Luciferase)
# Format: cell-based
# Run parameters: HiBit-tagged G2019S LRRK2 in HEK293 cells, 24 hours
Listed below: Dmax values for each entry.

Compound	Experimental endpoint	Reported value
CC1(Oc2ccc3[nH]nc(-c4ccnc(N5CCC(CC6CCN(C(=O)C7CCN(c8ccc9c(c8)C(=O)N(C8CCC(=O)NC8=O)C9=O)CC7)CC6)CC5)c4)c3c2)CC1 (centres unmarked) [Compound 93]	Dmax	< 50%

Read the next record carefully.
Query block: Entry CC1(Oc2ccc3[nH]nc(-c4cc(N5CCC(CN6CC[C@H](OC7CCN(c8ccc9c(c8)C(=O)N(C8CCC(=O)NC8=O)C9=O)CC7)C6)CC5)ncn4)c3c2)CC1 (some centres unmarked) [Compound 118] , system G2019S LRRK2 (Homo sapiens, UniProt Q5S007, G2019S): what Dmax was measured?
Result block: < 50%

----------
# Target under test: LRRK2 (endogenous, HiBit tagged) (Homo sapiens, UniProt Q5S007)
# Construct: endogenous in cells; host or cells: HEK293 cells with HiBit knock-in at the endogenous LRRK2 locus, stably expressing firefly luciferase
# Sequence (Q5S007 whole entry): as the sequence (Q5S007 whole entry G2019S) above, with S2019G counted along it
# Assay name: Endogenous LRRK2 degradation assay, endogenous gene C-terminally HiBit-tagged in HEK293 cells (Nano-Glo Dual Luciferase)
# Type: cell-based
# Run parameters: endogenous HiBit-tagged LRRK2 in HEK293 cells, 24 hours treatment; read-out: Endogenous WT Dmax
Listed below: Dmax values for each entry.

Compound	Dmax
CC1(Oc2ccc3[nH]nc(-c4cc(N5CCC(CN6CCC(F)(CC7CCN(c8c(F)cc9c(c8F)CN(C8CCC(=O)NC8=O)C9=O)CC7)CC6)CC5)ncn4)c3c2)CC1 (stereo not drawn)	50 to 70%
COc1c(N2CCC(O[C@H]3CC[C@H](CN4CCN(c5cc(-c6n[nH]c7ccc(OC8(C)CC8)cc67)nc(C)n5)CC4)CC3)CC2)ccc2c1CN(C1CCC(=O)NC1=O)C2=O (stereo partly drawn)	50 to 70%

Read the next record carefully.
Query block: Endpoint output: Dmax of CC1(Oc2cc3c(-c4cc(N5CCC(CC6(F)CCN(CC7CCN(c8ccc9c(c8F)CN(C8CCC(=O)NC8=O)C9=O)CC7)CC6)CC5)ncn4)n[nH]c3cc2F)CC1 (stereo not drawn) . Value?
Result block: 50 to 70%

----------
# Target under test: wildtype LRRK2 (Homo sapiens)
# Construct: expressed in transfected cells; host or cells: HEK293 (ATCC CRL-1573), transient transfection, mammalian expression vector with ubiquitin promoter
# Sequence (Q5S007 whole entry): as the sequence (Q5S007 whole entry G2019S) above, with S2019G counted along it
# Assay name: LRRK2 degradation assay, HiBit-tagged wildtype LRRK2 expressed from plasmid in HEK293 cells (Nano-Glo Dual-Luciferase)
# Assay type: cell-based
# Run parameters: HiBit-tagged wildtype LRRK2, HEK293 cells, 24 hours; read-out: *WT DC50
Listed below: DC50 values for each entry.

Molecule	Experimental endpoint	Reported value
CC1(Oc2ccc3[nH]nc(-c4cc(N5CCO[C@@H](CN6CCN(CC7CCN(c8ccc9c(c8)C(=O)N(C8CCC(=O)NC8=O)C9=O)CC7)CC6)C5)ncn4)c3c2)CC1 (some centres unmarked) [Compound 153]	DC50	< 10 nM

Query block: Endpoint output: DC50 of CC1(Oc2ccc3n[nH]c(-c4cc(N5CCC(Cc6cccc(CC7CCN(c8ccc9c(c8)C(=O)N(C8CCC(=O)NC8=O)C9=O)CC7)c6)CC5)ncn4)c3c2)CC1 (centres unmarked) [Compound 174] . Value?
Result block: ≥ 100 nM

Query block: Subsequent entry: CC1(Oc2ccc3[nH]nc(-c4ccnc(N5CCC(Cc6ccc(CC7CCN(c8ccc9c(c8)C(=O)N(C8CCC(=O)NC8=O)C9=O)CC7)cc6)CC5)c4)c3c2)CC1 (centres unmarked) [Compound 173]
Result block: ≥ 100 nM

Query block: Subsequent entry: CC1(Oc2ccc3[nH]nc(-c4ccnc(N5CC(CCC6CCN(CC7CCN(c8ccc9c(c8)C(=O)N(C8CCC(=O)NC8=O)C9=O)CC7)CC6)C5)c4)c3c2)CC1 (centres unmarked) [Compound 165]
Result block: < 10 nM

Query block: Subsequent entry: CC1(Oc2ccc3[nH]nc(-c4ccnc(N5CCC56CN(CC5CCN(CC7CCN(c8ccc9c(c8)C(=O)N(C8CCC(=O)NC8=O)C9=O)CC7)CC5)C6)c4)c3c2)CC1 (centres unmarked) [Compound 162]
Result block: 50 to 100 nM

----------
Listed below: Dmax values for each entry.
# Target under test: LRRK2 (endogenous, HiBit tagged) (Homo sapiens)
# Construct: endogenous in cells; host or cells: HEK293 cells with HiBit knock-in at the endogenous LRRK2 locus, stably expressing firefly luciferase
# Assay name: Endogenous LRRK2 degradation assay, endogenous gene C-terminally HiBit-tagged in HEK293 cells (Nano-Glo Dual Luciferase)
# Type: cell-based
# Run parameters: endogenous HiBit-tagged LRRK2 in HEK293 cells, 24 hours treatment; read-out: **Endogenous WT Dmax (%)

Below, each entry is followed by its recorded Dmax result.
Molecule	Target under test	Experimental endpoint	Reported value
COc1c(N2CCC(CN3CCN(CC4CCN(c5cc(-c6n[nH]c7cnc(OC8(C)CC8)cc67)ncn5)CC4)C[C@@H]3C)CC2)ccc2c1CN(C1CCC(=O)NC1=O)C2=O (stereo partly drawn) [Compound 271]	LRRK2 (endogenous, HiBit tagged) (Homo sapiens)	Dmax	50 to 70%
COc1c(N2CCN(C[C@H]3CC[C@H](CN4CCN(c5cc(-c6n[nH]c7ccc(OC8(C)CC8)cc67)ncn5)CC4)CC3)CC2)ccc2c1CN(C1CCC(=O)NC1=O)C2=O (stereo partly drawn) [Compound 265]	LRRK2 (endogenous, HiBit tagged) (Homo sapiens)	Dmax	≥ 70%

Read the next record carefully.
Query block: Endpoint output: Dmax of COc1c(N2CCC(CN3CC[C@H](OC4CCN(c5cc(-c6n[nH]c7ccc(OC8(C)CC8)cc67)ncn5)CC4)CC3(C)C)CC2)ccc2c1CN(C1CCC(=O)NC1=O)C2=O (stereo partly drawn) [Compound 325] . Value?
Result block: 50 to 70%

----------
# Target under test: wildtype LRRK2 (Homo sapiens)
# Construct: expressed in transfected cells; host or cells: HEK293 (ATCC CRL-1573), transient transfection, mammalian expression vector with ubiquitin promoter
# Assay name: LRRK2 degradation assay, HiBit-tagged wildtype LRRK2 expressed from plasmid in HEK293 cells (Nano-Glo Dual-Luciferase)
# Type: cell-based
# Run parameters: HiBit-tagged wildtype LRRK2 in HEK293 cells, 24 hours; read-out: *WT DC50
Listed below: DC50 values for each entry.

Below, each entry is followed by its recorded DC50 result.
Molecule	DC50
C[C@H]1CN(c2cc(-c3n[nH]c4ccc(OC5(C)CC5)cc34)ncn2)CCN1CCN1CCN(CC2CCN(c3ccc4c(c3)C(=O)N(C3CCC(=O)NC3=O)C4=O)CC2)CC1 (some centres unmarked)	< 10 nM
C[C@H]1CN(c2cc(-c3[nH]nc4ccc(OC5(C)CC5)cc34)ncn2)CCN1CC1CCN(CC2CCN(c3ccc4c(c3)CN(C3CCC(=O)NC3=O)C4=O)CC2)CC1 (some centres unmarked)	< 10 nM
CC1(Oc2ccc3[nH]nc(-c4cc(N5CCN(C[C@@H]6CCN(CC7CCN(c8ccc9c(c8)C(=O)N(C8CCC(=O)NC8=O)C9=O)CC7)C(=O)C6)CC5)ncn4)c3c2)CC1 (single isomer, unassigned)	< 10 nM
C[C@H]1CN(c2cc(-c3n[nH]c4ccc(OC5(C)CC5)cc34)ncn2)CCN1CC1CCN(CC2CCN(c3cc4c(cc3F)C(=O)N(C3CCC(=O)NC3=O)C4=O)CC2)CC1 (some centres unmarked)	< 10 nM
CC1(Oc2ccc3[nH]nc(-c4cc(N5CCC(CN6CCN(CC7CCN(c8ccc9c(c8)C(=O)N(C8CCC(=O)NC8=O)C9=O)CC7)CC6)CC5)ccn4)c3c2)CC1 (centres unmarked)	≥ 100 nM

Query block: Entry CC1(Oc2ccc3[nH]nc(-c4ccnc(N5CCC(CC6CCN(C(=O)C7CCN(c8ccc9c(c8)C(=O)N(C8CCC(=O)NC8=O)C9=O)CC7)CC6)CC5)c4)c3c2)CC1 (centres unmarked) , system wildtype LRRK2 (Homo sapiens): what DC50 was measured?
Result block: 10 to 50 nM

Query block: Subsequent entry: CC1(Oc2ccc3[nH]nc(-c4cc(N5CCN(C[C@@H]6CC(=O)N(CC7CCN(c8ccc9c(c8)C(=O)N(C8CCC(=O)NC8=O)C9=O)CC7)C6)CC5)ncn4)c3c2)CC1 (single isomer, unassigned)
Result block: < 10 nM

Query block: Subsequent entry: C[C@H]1CN(c2cc(-c3[nH]nc4ccc(OC5(C)CC5)cc34)ncn2)CCN1CCC1(F)CCN(CC2CCN(c3ccc4c(c3)CN(C3CCC(=O)NC3=O)C4=O)CC2)CC1 (some centres unmarked)
Result block: < 10 nM

Query block: Subsequent entry: CC1(Oc2ccc3n[nH]c(-c4cc(N5CCC(CN6CCN(CC7(F)CN(c8ccc9c(c8)C(=O)N(C8CCC(=O)NC8=O)C9=O)C7)CC6)CC5)ncn4)c3c2)CC1 (centres unmarked)
Result block: < 10 nM

Query block: Subsequent entry: CC1(Oc2ccc3[nH]nc(-c4cc(N5CCC(CC6CCN(C(=O)C7CCN(c8ccc9c(c8)C(=O)N(C8CCC(=O)NC8=O)C9=O)CC7)CC6)CC5)ncn4)c3c2)CC1 (centres unmarked)
Result block: < 10 nM

Query block: Subsequent entry: CC1(Oc2ccc3n[nH]c(-c4cc(N5CCC(CN6CCN(CC7CCN(c8cccc9c8CN(C8CCC(=O)NC8=O)C9=O)CC7)CC6)CC5)ncn4)c3c2)CC1 (centres unmarked)
Result block: < 10 nM
